measured parameter: melting point

# smiles str, melting point
measured = [
    ("N#Cc1ccc(C(=O)N2CCC[C@H](c3nc(-c4ccc(F)cc4)no3)C2)cc1", "129 to 130 °C"),
    ("Cc1nc(-c2cnccn2)sc1C(=O)N1CCC[C@H](c2nc(-c3ccc(F)cc3)no2)C1", "147 to 148 °C"),
    ("O=C(c1ccc(F)cc1)N1CCC[C@H](c2nc(-c3ccc([N+](=O)[O-])cc3)no2)C1", "162 to 164 °C"),
]

Shift focus to the following entry.
Query (compound): O=C(c1ccc2ncsc2c1)N1CCC[C@H](c2nc(-c3ccc(F)cc3)no2)C1 ; field requested: melting point
63 to 64 °C

---

Each entry below carries its recorded melting point.

Past entries and their recorded results:
# compound, melting point
records = [
    ("O=C(c1ccc2[nH]ccc2c1)N1CCC[C@H](c2nc(-c3ccc(F)cc3)no2)C1", "191 to 192 °C"),
    ("O=C(c1ccc(F)cc1)N1CCCC(c2nc(-c3ccccc3)no2)C1 (centres unmarked)", "78 to 79 °C"),
    ("O=C(c1ccccc1)N1CCCC(c2nc(-c3ccc(F)cc3)no2)C1 (centres unmarked)", "82 to 83 °C"),
    ("Cn1cccc1C(=O)N1CCC[C@H](c2nc(-c3ccc(F)cc3)no2)C1", "84 to 85 °C"),
]

Query (compound): O=C(c1ccc(-c2ccccn2)s1)N1CCC[C@H](c2nc(-c3ccc(F)cc3)no2)C1 ; field requested: melting point
115 to 117 °C

---

Each entry below carries its recorded melting point.

# compound, melting point
measured = [
    ("COc1ccc(-c2noc(C3CCCN(C(=O)c4ccccc4)C3)n2)cc1 (centres unmarked)", "121 °C"),
    ("O=C(c1ccc(F)cc1)N1CCOC(c2nc(-c3ccc(F)cc3)no2)C1 (centres unmarked)", "116 to 117 °C"),
    ("O=C(c1ccc(F)c(Cl)c1)N1CCC[C@H](c2nc(-c3ccc(F)cc3)no2)C1", "123 to 124 °C"),
    ("O=C(c1ccc(F)c(F)c1)N1CCC[C@H](c2nc(-c3ccccc3F)no2)C1", "115 to 119 °C"),
    ("O=C(c1ccc(F)c(F)c1)N1CCC[C@H](c2nc(-c3ccc(F)cc3)no2)C1", "120 to 121 °C"),
]

Query (compound): O=C(c1cc(F)c(F)c(F)c1)N1CCC[C@H](c2nc(-c3ccc(F)cc3)no2)C1 ; field requested: melting point
139 to 140 °C

Next entry: O=C(c1ccc2[nH]cnc2c1)N1CCC[C@H](c2nc(-c3ccc(F)cc3)no2)C1
110 to 115 °C

Next entry: O=C(c1ccc(F)cc1)N1CCCC(c2nc(-c3cccc(F)c3)no2)C1 (centres unmarked)
86 to 89 °C

---

measured parameter: melting point

Query (compound): O=C(c1cccs1)N1CCC[C@H](c2nc(-c3ccc(F)cc3)no2)C1 ; field requested: melting point
82 to 83 °C

Next entry: O=C(c1nc2ccccc2s1)N1CCC[C@H](c2nc(-c3ccc(F)cc3)no2)C1
130 to 131 °C

---

Each entry below carries its recorded melting point.

Past entries and their recorded results:
# molecule, melting point
records = [
    ("O=C(c1ccc(F)c(F)c1)N1CCC[C@H](c2nc(-c3ccc([N+](=O)[O-])cc3)no2)C1 [Example 72]", "138 to 140 °C"),
    ("O=C(c1ccc(F)cc1)N1CCC[C@H](c2nc(-c3ccncc3)no2)C1 [Example 48]", "113 to 115 °C"),
]

Shift focus to the following entry.
Query (molecule): O=C(c1ccc(F)cc1)N1CCC[C@H](c2nc(-c3ccc4ccccc4c3)no2)C1 [Example 53] ; field requested: melting point
142 to 143 °C

---

Each entry below carries its recorded melting point.

Query (compound): O=C(CCc1ccc(F)cc1)N1CCC[C@H](c2nc(-c3ccc(F)cc3)no2)C1 ; field requested: melting point
83 to 84 °C

---

measured parameter: melting point

# compound, measured parameter, test result
measured = [
    ("Cc1ccsc1C(=O)N1CCC[C@H](c2nc(-c3ccc(F)cc3)no2)C1 [Example 32]", "melting point", "90 to 92 °C"),
]

Query (compound): Cc1ncsc1C(=O)N1CCC[C@H](c2nc(-c3ccc(F)cc3)no2)C1 [Example 38] ; field requested: melting point
122 to 124 °C

Next entry: O=C(c1ccno1)N1CCC[C@H](c2nc(-c3ccc(F)cc3)no2)C1 [Example 24]
93 to 94 °C

Next entry: O=C(c1ccc(N2CCOCC2)nc1)N1CCC[C@H](c2nc(-c3ccc(F)cc3)no2)C1 [Example 39]
112 to 114 °C

Next entry: Cc1cc(C(=O)N2CCC[C@H](c3nc(-c4ccc(F)cc4)no3)C2)nn1C [Example 21]
108 to 109 °C

Next entry: O=C(c1nccs1)N1CCC[C@H](c2nc(-c3ccc(F)cc3)no2)C1 [Example 37]
94 to 95 °C

Next entry: O=C(/C=C/c1ccc(F)cc1)N1CCC[C@H](c2nc(-c3ccc(F)cc3)no2)C1 [Example 64]
137 to 139 °C

Next entry: O=C(c1ccc(C(F)(F)F)cc1)N1CCC[C@H](c2nc(-c3ccc(F)cc3)no2)C1 [Example 22]
109 to 110 °C

Next entry: Cc1cc(C(=O)N2CCC[C@H](c3nc(-c4ccc(F)cc4)no3)C2)ccc1F [Example 30]
106 to 107 °C

Next entry: O=C(c1cccc(F)c1)N1CCCC(c2nc(-c3ccc(F)cc3)no2)C1 (centres unmarked) [Example 6]
139 to 140 °C

Next entry: O=C(c1ccc(F)cc1)N1CCC[C@H](c2nc(-c3ccccc3)no2)C1 [Example 69]
116 to 118 °C

Next entry: O=C(c1ccc(F)c(F)c1)N1CCC[C@H](c2nc(-c3ccccc3)no2)C1 [Example 70]
149 to 151 °C

Next entry: O=C(c1csnn1)N1CCC[C@H](c2nc(-c3ccc(F)cc3)no2)C1 [Example 18]
90 to 91 °C

Next entry: O=C(c1ccc(F)cc1)N1CCCC(c2nnc(-c3ccc(F)cc3)[nH]2)C1 (centres unmarked) [Example 1]
95 °C
